Molecular target: T1, cyno IL-33 N-His (cynomolgus monkey)
T1 chain: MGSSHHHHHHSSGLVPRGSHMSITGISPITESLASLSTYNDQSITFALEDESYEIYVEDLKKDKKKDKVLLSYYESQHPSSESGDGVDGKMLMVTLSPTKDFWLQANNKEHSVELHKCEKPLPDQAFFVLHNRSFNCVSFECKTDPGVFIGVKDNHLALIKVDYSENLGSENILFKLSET
Assay: SPR Biacore T200, 37 C
RESULT TYPE: koff

Fill in: koff of H4H9672P (antibody, V domains shown) VH: EVQLVESGGGLVQPGGSLRLSCAASGFTLRSYVMYWVRQGPGKGLEGVSGISGSSGGTYYTDSVKGRFTISRDNSKNTLFLQMNSLRAEDTAVYFCARSVYSTTWYGGFQHWGQGTLVTVSS VL: DIQMTQSPSSVSVSVGDRVTITCRASQVISSWLAWYQLKPGKAPKLLIYAASSLQSGVPSRFSGSGSGTDFTLTISGLQPEDFAVYYCQQTNSFPLTFGGGTKVEIK is ___ 0.00757 s⁻¹
